- testedSystem: Mitochondrial complex I; NADH oxidoreductase (Bos taurus, UniProt P25708+P52505)
- Sequence (P25708 21-464 limits assumed, other chains not shown): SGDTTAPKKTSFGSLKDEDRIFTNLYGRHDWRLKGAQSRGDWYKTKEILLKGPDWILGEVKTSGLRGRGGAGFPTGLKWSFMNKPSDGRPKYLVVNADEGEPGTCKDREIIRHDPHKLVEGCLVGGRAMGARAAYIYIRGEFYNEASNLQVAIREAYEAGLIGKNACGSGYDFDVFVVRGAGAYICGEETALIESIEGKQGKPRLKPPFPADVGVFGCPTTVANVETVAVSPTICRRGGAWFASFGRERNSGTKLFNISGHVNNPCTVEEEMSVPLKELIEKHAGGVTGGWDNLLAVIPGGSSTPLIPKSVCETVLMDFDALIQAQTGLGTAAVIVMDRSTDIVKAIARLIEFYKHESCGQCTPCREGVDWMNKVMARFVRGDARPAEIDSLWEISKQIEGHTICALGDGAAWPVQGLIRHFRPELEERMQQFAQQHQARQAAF
- methodSummary: Inhibition of complex I activity was determined by NADH oxidase assay using bovine heart submitochondrial particles.
Exercise: for every item that follows, state its recorded pIC50.
Numbers only, as −log10 of the molar value.

Examples from the recorded data:
molecule: CCCCCCCCCC[C@@H](O)[C@H]1CC[C@H]([C@H]2CC[C@H]([C@H](O)CCCCCCCCCCCCC3=C(C)C(=O)C(OC)=C(OC)C3=O)O2)O1
pIC50: 8.92
--
molecule: CCCCCCCCCC[C@@H](O)[C@H]1CC[C@H]([C@H]2CC[C@H]([C@H](O)CCCCCCCCCCCCC3=C[C@H](C)OC3=O)O2)O1 [ISODESAACETYLUVARICIN]
pIC50: 9.05
--
molecule: CCCCC[C@@H](O)[C@H]1CC[C@H]([C@H]2CC[C@H]([C@H](O)CCCCC)O2)O1
pIC50: 5.35
--
molecule: CCCCCCCCCC[C@@H](O)[C@@H]1CC[C@@H]([C@@H]2CC[C@@H]([C@H](O)CCCCCCCCCC(O)CC3=CC(C)OC3=O)O2)O1 (stereo not given in full) [BULLATACIN]
pIC50: 9.05

Moving on to the next molecule.
INPUT: So what does the record say about pIC50 for CCCCCCCCCC[C@@H](O)[C@H]1CC[C@H]([C@H]2CC[C@H]([C@H](O)CCCCCCCCCCCCc3c(C)c(OC)c(OC)c(OC)c3OC)O2)O1 ?
OUTPUT: 6.55
